biological target: human GLP-1 receptor (Homo sapiens, UniProt P43220); construct: HA (N); expressed in transfected cells; experiment: GLP-1 receptor-mediated agonist activity: cAMP level in hGLP-1R/HEK293 cell line (HTRF); assay type: cell-based; settings: cAMP levels of the hGLP-1R/HEK293 cell line; Table 2, comparison with reference compounds; read-out: EC50
Sequence (P43220 24-463): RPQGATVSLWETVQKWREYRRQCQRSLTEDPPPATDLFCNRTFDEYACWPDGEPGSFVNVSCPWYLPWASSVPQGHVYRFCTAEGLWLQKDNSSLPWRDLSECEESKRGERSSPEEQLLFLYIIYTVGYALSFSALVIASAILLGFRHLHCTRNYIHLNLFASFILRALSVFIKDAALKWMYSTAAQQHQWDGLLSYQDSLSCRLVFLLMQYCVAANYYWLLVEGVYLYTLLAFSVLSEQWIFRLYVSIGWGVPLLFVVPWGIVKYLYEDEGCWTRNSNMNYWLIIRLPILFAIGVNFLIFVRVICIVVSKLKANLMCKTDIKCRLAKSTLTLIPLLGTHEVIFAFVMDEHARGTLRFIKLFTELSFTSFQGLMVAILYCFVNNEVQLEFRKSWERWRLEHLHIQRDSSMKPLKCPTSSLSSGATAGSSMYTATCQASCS
pEC50: −log10 of the molar value.
RECORDED METRIC: pEC50

1: CC1(c2ccc(Cl)cc2F)Oc2cccc(N3C=NN(Cc4nc5ccc(C(=O)O)cc5n4C[C@@H]4CCO4)CC3)c2O1 (stereo partly drawn) [CN2022114139828 , Compound 37, reference compound]
2: N#Cc1ccc(COc2cccc(C3CCN(Cc4nc5ccc(C(=O)O)cc5n4C[C@@H]4CCO4)CC3)n2)c2occc12 [CN113480534 , Compound 3, reference compound]
3: O=C(O)c1ccc2nc(CN3CCC(c4cccc(OCc5ccc(Cl)cc5F)n4)CC3)n(C[C@@H]3CCO3)c2c1 [WO2018109607 , Example 3A-01, reference compound]
[ask] Reorder the items by pEC50, least to greatest. Please list each label once, in the requested order.
[reply] 1, 3, 2
(1: 9.86, 3: 10.49, 2: 10.90)

---

molecular target: human GLP-1 receptor (Homo sapiens, UniProt P43220); construct: HA (N); expressed in transfected cells; experiment: GLP-1 receptor-mediated agonist activity: cAMP level in hGLP-1R/HEK293 cell line (HTRF); format: cell-based; conditions: cAMP levels in hGLP-1R/HEK293 cell line; Table 1; read-out: determined EC50
RECORDED METRIC: EC50 (pM)

molecule="CCOc1cc(C(=O)O)cc2c1nc(CN1CCC(c3cccc4c3OC(C)(c3ccc(Cl)cc3F)O4)CC1)n2C[C@@H]1CCO1 (stereo partly drawn)" target_of_assay="human GLP-1 receptor (Homo sapiens, UniProt P43220)" scale_unit=pM readout_value=6.7
molecule="[2H]C([2H])([2H])Oc1cc(C(=O)O)cc2c1nc(CN1CCC(c3cccc4c3OC(C)(c3ccc(Cl)cn3)O4)CC1)n2C[C@@H]1CCO1 (stereo partly drawn)" target_of_assay="human GLP-1 receptor (Homo sapiens, UniProt P43220)" scale_unit=pM readout_value=10.3
molecule="COc1cc(C(=O)O)cc2c1nc(CN1CCC(c3cccc4c3OC(C)(c3ccc(Cl)cc3F)O4)CC1)n2C[C@@H]1CCO1 (stereo partly drawn)" target_of_assay="human GLP-1 receptor (Homo sapiens, UniProt P43220)" scale_unit=pM readout_value=8.3

I: [2H]C([2H])([2H])C([2H])([2H])Oc1cc(C(=O)O)cc2c1nc(CN1CCN(c3cccc4c3OC(C)(c3ccc(Cl)c(F)c3F)O4)C=N1)n2C[C@@H]1CCO1 (stereo partly drawn)
II: CCOc1cc(C(=O)O)cc2c1nc(CN1CCC(c3cccc4c3OC(C)(c3ccc(Cl)cn3)O4)CC1)n2C[C@@H]1CCO1 (stereo partly drawn)
[ask] From the items above, decide which of I and II has the lower EC50 reading. Write down the label of the entry you select.
[reply] II

A: COc1cc(C(=O)O)cc2c1nc(CN1CCC(c3cccc4c3OC(C)(c3ccc(Cl)cn3)O4)CC1)n2C[C@@H]1CCO1 (stereo partly drawn)
B: COc1cc(C(=O)O)cc2c1nc(CN1CCN(c3cccc(OCc4ccc(C#N)cc4F)n3)C=N1)n2C[C@@H]1CCO1
C: CCOc1cc(C(=O)O)cc2c1nc(CN1CCC(c3cccc(OCc4ccc(C#N)cc4F)n3)CC1)n2C[C@@H]1CCO1
[ask] Place the items in sequence of falling EC50. Please list each label once, in the requested order.
[reply] A, B, C

P: CCOc1cc(C(=O)O)cc2c1nc(CN1CCC(c3cccc(OCc4ccc(C(F)(F)F)cc4F)n3)CC1)n2C[C@@H]1CCO1
Q: [2H]C([2H])([2H])C([2H])([2H])Oc1cc(C(=O)O)cc2c1nc(CN1CCN(c3cccc4c3OC(C)(c3cc(F)c(Cl)cc3F)O4)C=N1)n2C[C@@H]1CCO1 (stereo partly drawn)
R: CCOc1cc(C(=O)O)cc2c1nc(CN1CCN(c3cccc(OCc4ccc(C#N)cc4F)n3)C=N1)n2C[C@@H]1CCO1
[ask] Place the items in sequence of falling EC50. Please list each label once, in the requested order.
[reply] Q, P, R
(Q: 43.8 pM, P: 7.4 pM, R: 1.2 pM)

---

biological target: hERG potassium channels (Homo sapiens, UniProt Q12809)
Sequence (Q12809 whole entry): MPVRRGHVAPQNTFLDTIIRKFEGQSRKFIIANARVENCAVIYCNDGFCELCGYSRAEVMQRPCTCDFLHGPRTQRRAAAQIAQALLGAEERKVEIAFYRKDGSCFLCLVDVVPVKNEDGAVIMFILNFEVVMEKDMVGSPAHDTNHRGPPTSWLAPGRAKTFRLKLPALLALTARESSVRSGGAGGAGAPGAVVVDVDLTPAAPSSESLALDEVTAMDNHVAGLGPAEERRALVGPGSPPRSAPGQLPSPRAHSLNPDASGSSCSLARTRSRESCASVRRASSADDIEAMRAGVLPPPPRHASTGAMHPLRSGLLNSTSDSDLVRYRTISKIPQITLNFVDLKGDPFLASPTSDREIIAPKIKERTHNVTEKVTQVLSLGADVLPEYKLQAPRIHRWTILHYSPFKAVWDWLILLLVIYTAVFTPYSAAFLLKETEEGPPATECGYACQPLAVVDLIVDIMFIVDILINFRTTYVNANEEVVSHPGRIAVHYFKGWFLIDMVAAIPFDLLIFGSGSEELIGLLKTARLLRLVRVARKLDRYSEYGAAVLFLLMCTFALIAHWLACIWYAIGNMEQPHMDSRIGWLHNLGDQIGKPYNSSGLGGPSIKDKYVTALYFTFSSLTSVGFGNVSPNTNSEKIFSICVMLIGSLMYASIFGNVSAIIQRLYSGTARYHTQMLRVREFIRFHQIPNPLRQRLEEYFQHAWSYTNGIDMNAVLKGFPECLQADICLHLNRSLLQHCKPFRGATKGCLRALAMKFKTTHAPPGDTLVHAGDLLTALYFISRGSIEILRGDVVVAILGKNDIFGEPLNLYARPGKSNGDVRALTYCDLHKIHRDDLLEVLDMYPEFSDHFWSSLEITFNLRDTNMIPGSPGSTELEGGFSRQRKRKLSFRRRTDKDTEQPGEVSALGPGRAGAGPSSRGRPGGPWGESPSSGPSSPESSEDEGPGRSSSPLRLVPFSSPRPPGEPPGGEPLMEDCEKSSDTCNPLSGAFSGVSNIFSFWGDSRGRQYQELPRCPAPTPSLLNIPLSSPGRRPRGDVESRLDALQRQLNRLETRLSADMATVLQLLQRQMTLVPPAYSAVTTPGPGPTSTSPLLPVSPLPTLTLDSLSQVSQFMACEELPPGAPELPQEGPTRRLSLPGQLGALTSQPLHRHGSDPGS
RECORDED METRIC: IC50

Examples with answers:
compound="[2H]C([2H])([2H])C([2H])([2H])Oc1cc(C(=O)O)cc2c1nc(CN1CCN(c3cccc4c3OC(C)(c3ccc(Cl)cn3)O4)C=N1)n2C[C@@H]1CCO1 (stereo partly drawn)" recorded_metric=IC50 readout_value="> 40 µM"
compound=COc1cc(C(=O)O)cc2c1nc(CN1CCC(c3cccc(OCc4ccc(Cl)cc4F)n3)CC1)n2C[C@@H]1CCO1 recorded_metric=IC50 readout_value="12.5 µM"

[ask] hERG potassium channels (Homo sapiens, UniProt Q12809) / IC50 / [2H]C([2H])([2H])C([2H])([2H])Oc1cc(C(=O)O)cc2c1nc(CN1CCN(c3cccc4c3OC(C)(c3ccc(C(F)(F)F)cc3F)O4)C=N1)n2C[C@@H]1CCO1 (stereo partly drawn) : value?
[reply] > 40 µM

[ask] hERG potassium channels (Homo sapiens, UniProt Q12809) / IC50 / CCOc1cc(C(=O)O)cc2c1nc(CN1CCN(c3cccc(OCc4ccc(C#N)cc4F)n3)C=N1)n2C[C@@H]1CCO1 : value?
[reply] > 40 µM

[ask] hERG potassium channels (Homo sapiens, UniProt Q12809) / IC50 / COc1cc(C(=O)O)cc2c1nc(CN1CCN(c3cccc(OCc4ccc(Cl)cc4F)n3)C=N1)n2C[C@@H]1CCO1 : value?
[reply] > 40 µM

[ask] hERG potassium channels (Homo sapiens, UniProt Q12809) / IC50 / COc1cc(Cl)ccc1COc1cccc(N2C=NN(Cc3nc4c(OC)cc(C(=O)O)cc4n3C[C@@H]3CCO3)CC2)n1 : value?
[reply] > 40 µM

---

Measured pIC50, listed per entry for reference.
biological target: hERG potassium channels (Homo sapiens, UniProt Q12809)
pIC50: −log10 of the molar value.

[ask] Which pIC50 value is on record for [2H]C([2H])([2H])C([2H])([2H])Oc1cc(C(=O)O)cc2c1nc(CN1CCN(c3cccc4c3OC(C)(c3ccc(Cl)cc3F)O4)C=N1)n2C[C@@H]1CCO1 (stereo partly drawn) ?
[reply] < 4.40

[ask] Which pIC50 value is on record for COc1cc(C(=O)O)cc2c1nc(CN1CCN(c3cccc4c3OC(C)(c3ccc(Cl)cc3F)O4)C=N1)n2C[C@@H]1CCO1 (stereo partly drawn) ?
[reply] < 4.40

[ask] Which pIC50 value is on record for [2H]C([2H])([2H])Oc1cc(C(=O)O)cc2c1nc(CN1CCC(c3cccc4c3OC(C)(c3ccc(Cl)cn3)O4)CC1)n2C[C@@H]1CCO1 (stereo partly drawn) ?
[reply] < 4.40

---

molecular target: human GLP-1 receptor (Homo sapiens); construct: HA (N); expressed in transfected cells; test: GLP-1 receptor-mediated agonist activity: cAMP level in hGLP-1R/HEK293 cell line (HTRF); type: cell-based; settings: cAMP levels in hGLP-1R/HEK293 cell line; Table 1; read-out: determined EC50
pEC50: −log10 of the molar value.
RECORDED METRIC: pEC50

molecule=O=C(O)c1cc(OC2CC2)c2nc(CN3CCN(c4cccc(OCc5ccc(Cl)cc5F)n4)C=N3)n(C[C@@H]3CCO3)c2c1 recorded_metric=pEC50 readout_value=10.93
molecule="CCOc1cc(C(=O)O)cc2c1nc(CN1CCN(c3cccc4c3OC(C)(c3cc(F)c(Cl)cc3F)O4)C=N1)n2C[C@@H]1CCO1 (stereo partly drawn)" recorded_metric=pEC50 readout_value=10.35
molecule=N#Cc1ccc(COc2cccc(N3C=NN(Cc4nc5c(OC(F)F)cc(C(=O)O)cc5n4C[C@@H]4CCO4)CC3)n2)c(F)c1 recorded_metric=pEC50 readout_value=10.88
molecule=COc1cc(C(=O)O)cc2c1nc(CN1CCC(c3cccc(OCc4ccc(C#N)c5c4OCC5)n3)CC1)n2C[C@@H]1CCO1 recorded_metric=pEC50 readout_value=11.72

I: CCOc1cc(C(=O)O)cc2c1nc(CN1CCC(c3cccc4c3OC(C)(c3ccc(C(F)(F)F)cc3OC)O4)CC1)n2C[C@@H]1CCO1 (stereo partly drawn)
II: COc1cc(C(F)(F)F)ccc1COc1cccc(N2C=NN(Cc3nc4c(OC)cc(C(=O)O)cc4n3C[C@@H]3CCO3)CC2)n1
III: CCOc1cc(C(=O)O)cc2c1nc(CN1CCN(c3cccc(OCc4ccc(C(F)(F)F)cc4F)n3)C=N1)n2C[C@@H]1CCO1
IV: COc1cc(Cl)ccc1C1(C)Oc2cccc(N3C=NN(Cc4nc5c(OC)cc(C(=O)O)cc5n4C[C@@H]4CCO4)CC3)c2O1 (stereo partly drawn)
V: [2H]C([2H])([2H])C([2H])([2H])Oc1cc(C(=O)O)cc2c1nc(CN1CCN(c3cccc4c3O[C@](C)(c3ccc(Cl)cc3F)O4)C=N1)n2C[C@@H]1CCO1
[ask] Place the items in sequence of falling pEC50. Please list each label once, in the requested order.
[reply] II, I, III, IV, V
(II: 11.82, I: 11.59, III: 11.28, IV: 11.04, V: 9.22)

Value source: patent EP4650353A1
